IC50 values, listed per item
System: HT-29
Assay: Cytotoxicity against human HT-29 cells after 48 hrs by MTT assay
Format: functional, cell-based
Details: HT-29, 48 h

{"cpd_smiles": "COc1ccc(C2=NO[C@H]3[C@@H]2[C@@H](C(=O)O)C[C@H]3C(=O)O)cc1OC", "experimental_target": "HT-29", "measurement_unit": "µg/mL", "inequality_symbol": "=", "IC50": 40.6}
{"cpd_smiles": "N#Cc1ccc(C2=NO[C@H]3[C@@H]2[C@@H](C(=O)O)C[C@H]3C(=O)O)cc1", "experimental_target": "HT-29", "measurement_unit": "µg/mL", "inequality_symbol": "=", "IC50": 30.3}
{"cpd_smiles": "OC[C@@H]1C[C@H](CO)[C@@H]2C(c3ccccc3Cl)=NO[C@H]12", "experimental_target": "HT-29", "measurement_unit": "µg/mL", "inequality_symbol": "=", "IC50": 33.8}
{"cpd_smiles": "COC(=O)[C@H]1C[C@@H](C(=O)OC)[C@H]2ON=C(c3ccc(Br)cc3)[C@H]21", "experimental_target": "HT-29", "measurement_unit": "µg/mL", "inequality_symbol": ">", "IC50": 50}
{"cpd_smiles": "O=C(O)[C@H]1C[C@@H](C(=O)O)[C@H]2ON=C(c3ccc4ccccc4c3)[C@H]21", "experimental_target": "HT-29", "measurement_unit": "µg/mL", "inequality_symbol": "=", "IC50": 29.7}
{"cpd_smiles": "COc1ccc(C2=NO[C@@H]3[C@H](CO)C[C@H](CO)[C@H]23)cc1OC", "experimental_target": "HT-29", "measurement_unit": "µg/mL", "inequality_symbol": ">", "IC50": 50}
{"cpd_smiles": "OC[C@@H]1C[C@H](CO)[C@@H]2C(c3ccc4ccccc4c3)=NO[C@H]12", "experimental_target": "HT-29", "measurement_unit": "µg/mL", "inequality_symbol": "=", "IC50": 14.3}
{"cpd_smiles": "OC[C@@H]1C[C@H](CO)[C@@H]2C(c3ccc(F)cc3)=NO[C@H]12", "experimental_target": "HT-29", "measurement_unit": "µg/mL", "inequality_symbol": "=", "IC50": 17.8}

---

MIC values, listed per item
Test system: Pseudomonas sp.
Assay: Antimicrobial activity against Pseudomonas sp. by cup plate diffusion method
Assay type: functional

{"cpd_smiles": "Cc1ccc(C2=NO[C@H]3[C@@H]2[C@@H](C(=O)O)C[C@H]3C(=O)O)cc1", "MIC": "> 100 mg/L"}
{"cpd_smiles": "O=C(O)[C@H]1C[C@@H](C(=O)O)[C@H]2ON=C(c3ccc(Cl)cc3)[C@H]21", "MIC": "> 100 mg/L"}
{"cpd_smiles": "COc1ccc(C2=NO[C@@H]3[C@H](CO)C[C@H](CO)[C@H]23)cc1", "MIC": "> 100 mg/L"}
{"cpd_smiles": "Cc1ccc(C2=NO[C@@H]3[C@H](CO)C[C@H](CO)[C@H]23)cc1", "MIC": "> 100 mg/L"}
{"cpd_smiles": "OC[C@@H]1C[C@H](CO)[C@@H]2C(c3ccc(Br)cc3)=NO[C@H]12", "MIC": "> 100 mg/L"}
{"cpd_smiles": "O=C(O)[C@H]1C[C@@H](C(=O)O)[C@H]2ON=C(c3ccc(Br)cc3)[C@H]21", "MIC": "22 mg/L"}
{"cpd_smiles": "COC(=O)[C@H]1C[C@@H](C(=O)OC)[C@H]2ON=C(c3ccc(Br)cc3)[C@H]21", "MIC": "> 100 mg/L"}
{"cpd_smiles": "OC[C@@H]1C[C@H](CO)[C@@H]2C(c3ccc(Cl)cc3)=NO[C@H]12", "MIC": "> 100 mg/L"}
{"cpd_smiles": "COc1ccc(C2=NO[C@H]3[C@@H]2[C@@H](C(=O)O)C[C@H]3C(=O)O)cc1OC", "MIC": "44.2 mg/L"}
{"cpd_smiles": "OC[C@@H]1C[C@H](CO)[C@@H]2C(c3ccccc3Cl)=NO[C@H]12", "MIC": "> 100 mg/L"}
{"cpd_smiles": "OC[C@@H]1C[C@H](CO)[C@@H]2C(c3ccc(F)cc3)=NO[C@H]12", "MIC": "> 100 mg/L"}
{"cpd_smiles": "COC(=O)[C@H]1C[C@@H](C(=O)OC)[C@H]2ON=C(c3ccc(C#N)cc3)[C@H]21", "MIC": "> 100 mg/L"}
{"cpd_smiles": "COC(=O)[C@H]1C[C@@H](C(=O)OC)[C@H]2ON=C(c3ccc4ccccc4c3)[C@H]21", "MIC": "> 100 mg/L"}
{"cpd_smiles": "COC(=O)[C@H]1C[C@@H](C(=O)OC)[C@H]2ON=C(c3ccc(OC)c(OC)c3)[C@H]21", "MIC": "> 100 mg/L"}
{"cpd_smiles": "COC(=O)[C@H]1C[C@@H](C(=O)OC)[C@H]2ON=C(c3ccc(F)cc3)[C@H]21", "MIC": "> 100 mg/L"}
{"cpd_smiles": "OC[C@@H]1C[C@H](CO)[C@@H]2C(c3ccc4ccccc4c3)=NO[C@H]12", "MIC": "> 100 mg/L"}
{"cpd_smiles": "N#Cc1ccc(C2=NO[C@@H]3[C@H](CO)C[C@H](CO)[C@H]23)cc1", "MIC": "2.1 mg/L"}
{"cpd_smiles": "COC(=O)[C@H]1C[C@@H](C(=O)OC)[C@H]2ON=C(c3ccc(C)cc3)[C@H]21", "MIC": "> 100 mg/L"}
{"cpd_smiles": "COC(=O)[C@H]1C[C@@H](C(=O)OC)[C@H]2ON=C(c3ccc(OC)cc3)[C@H]21", "MIC": "> 100 mg/L"}
{"cpd_smiles": "O=C(O)[C@H]1C[C@@H](C(=O)O)[C@H]2ON=C(c3ccc4ccccc4c3)[C@H]21", "MIC": "> 100 mg/L"}
{"cpd_smiles": "COC(=O)[C@H]1C[C@@H](C(=O)OC)[C@H]2ON=C(c3ccccc3Cl)[C@H]21", "MIC": "> 100 mg/L"}
